Tested on: clinical isolates of multidrug-resistant Klebsiella pneumoniae (and ATCC43816)
assay overview: MIC determination at Fidelta, clinical isolates
Assay type: cell-based
condition set: Klebsiella pneumoniae, ATCC43816, KP-1942; Urine (catheter)/VIM
measure name: MIC90 (µg/mL)
# number only, unit µg/mL dropped from output

Query MIC90 for NC[C@H]1O[C@H](O[C@H]2[C@H](O)[C@@H](O[C@H]3O[C@H](CO)[C@@H](O)[C@H](N)[C@H]3O)[C@H](N)C[C@@H]2N)[C@H](N)C[C@@H]1O
16

Indicate its recorded MIC90; the compound in question is C[C@@H](O)[C@H]1C(=O)N2C(C(=O)O)=C(S[C@@H]3CN[C@H](C(=O)N(C)C)C3)[C@H](C)[C@H]12 [Meropenem, meropenem, reference compound]
64

Report measured MIC90; entry is NCC[C@H](O)C(=O)N[C@@H]1C[C@H](N)[C@@H](O[C@H]2O[C@H](CN)[C@@H](O)[C@H](O)[C@H]2O)[C@H](O)[C@H]1O[C@H]1O[C@H](CO)[C@@H](O)[C@H](N)[C@H]1O [Amikacin, amikacin, reference compound]
2

Value source: patent US20220127297A1
